Assay: Kinetic solubility in aqueous media (nephelometry)
Format: physicochemical
Settings: phosphate citrate buffer, pH 7.4, aqueous buffer, kinetic from dmso stock, phosphate citrate buffer pH 7.4, turbidity of three dilution steps; read-out: Solubility Score
Documented solubility across a set of compounds

Look over these answered cases.
[Q] Fill in reported solubility for this entry: O=C(NO)c1cnc(N2CCN(S(=O)(=O)c3ccc(-c4ccsc4CN4CCOCC4)cc3)CC2)nc1
[A] < 75.8 µM

[Q] Query solubility for O=C(NO)c1ccc(N2CCN(S(=O)(=O)c3cc(S(=O)(=O)c4ccccc4)cs3)CC2)cc1
[A] > 454 µM

Continuing:
[Q] Provide measured solubility value, entry: O=C(NO)c1cnc(N2CCN(S(=O)(=O)c3ccc4ccccc4c3)CC2)cn1
[A] < 75.8 µM

[Q] Tell me measured solubility for CN(C)CCN(C)Cc1ccc(-c2ccc(S(=O)(=O)N3CCN(c4ncc(C(=O)NO)cn4)CC3)cc2)cc1 please.
[A] 75.8 to 454 µM

====

Molecular target: histone deacetylase (HeLa nuclear extracts)
Experiment: In vitro assay for inhibition of histone deacetylase
Assay type: biochemical
Settings: [3H]acetylated histone H4 peptide substrate
endpoint: Enzyme activity pIC50

[a] O=C(NO)c1ccc(N2CCN(S(=O)(=O)c3cccs3)CC2)cc1 [Compound 70]
[b] O=C(NO)c1cnc(N2CCN(S(=O)(=O)c3ccc(-c4cccc(CCN5CCCC5)c4)cc3)CC2)nc1 [Compound 127]
[Q] I'm curious, which of these has a smaller Enzyme activity pIC50 number: a or b ? Response format: the label of the selected entry.
[A] a

====

Readings of solubility for the listed compounds
Test: Kinetic solubility in aqueous media (nephelometry)
Format: physicochemical
Conditions: phosphate citrate buffer, pH 7.4, aqueous buffer, kinetic from dmso stock, phosphate citrate buffer pH 7.4, turbidity of three dilution steps; read-out: Solubility Score

Example entries and their recorded answers appear below.
[Q] Query solubility for COc1ccc(-c2ccc(S(=O)(=O)N3CCN(c4ncc(C(=O)NO)cn4)CC3)cc2)c(OC)c1
[A] > 454 µM

[Q] Supply reported solubility belonging to this compound: O=C(NO)c1ccc(N2CCN(S(=O)(=O)c3cccc(-c4ccccc4)c3)CC2)cc1
[A] < 75.8 µM

[Q] Please indicate solubility recorded for O=C(NO)c1ccc(N2CCN(S(=O)(=O)CCc3cccc4ccccc34)CC2)cc1
[A] < 75.8 µM

[Q] Supply recorded solubility for O=C(NO)c1cnc(N2CCN(S(=O)(=O)N3CCOCC3)CC2)nc1 here.
[A] > 454 µM

[Q] Check the records and state solubility for O=C(NO)c1ccc(N2CCN(S(=O)(=O)c3cccc4cccnc34)CC2)cc1
[A] > 454 µM

Further cases:
[Q] For O=C(NO)c1ccc(N2CCN(S(=O)(=O)c3ccc(-c4ccccn4)s3)CC2)cc1 , write its solubility.
[A] < 75.8 µM

[Q] Identify the reported solubility for the following entry. O=C(NO)c1ccc(N2CCN(S(=O)(=O)c3cccc(F)c3)CC2)cc1
[A] 75.8 to 454 µM

[Q] Determine from records and report solubility for O=C(NO)c1ccc(N2CCN(S(=O)(=O)c3cccs3)CC2)cc1
[A] > 454 µM

[Q] // fetch solubility given entry CN1CCN(Cc2ccccc2-c2ccc(S(=O)(=O)N3CCN(c4ncc(C(=O)NO)cn4)CC3)cc2)CC1
[A] > 454 µM

====

Biological target: histone deacetylase (HeLa nuclear extracts)
Test: In vitro assay for inhibition of histone deacetylase
Assay type: biochemical
Conditions: [3H]acetylated histone H4 peptide substrate
endpoint: Enzyme activity pIC50

[Q] State its Enzyme activity pIC50: Nc1ccc(-c2ccc(S(=O)(=O)N3CCN(c4ncc(C(=O)NO)cn4)CC3)cc2)cc1 [Compound 140]
[A] 7.739

[Q] Give me measured Enzyme activity pIC50, please, for this molecule: O=C(NO)c1ccc(N2CCN(S(=O)(=O)c3ccc(-c4ccccn4)s3)CC2)cc1 [Compound 68]
[A] 6.908

[Q] Return reported Enzyme activity pIC50. Input molecule: Cn1nc(C(F)(F)F)cc1-c1ccc(S(=O)(=O)N2CCN(c3ncc(C(=O)NO)cn3)CC2)s1 [Compound 94]
[A] 7.497

[Q] Write down Enzyme activity pIC50 measured for item O=C(NO)c1ccc(N2CCN(S(=O)(=O)CCc3cccc4ccccc34)CC2)cc1 [Compound 62]
[A] 5.409

[Q] Provide measured Enzyme activity pIC50 value, entry: O=C(NO)c1cnc(N2CCN(S(=O)(=O)c3ccc(-c4ccsc4CN4CCOCC4)cc3)CC2)nc1 [Compound 148]
[A] 7.94

[Q] Tell me Enzyme activity pIC50 reported for O=C(NO)c1cnc(N2CCN(S(=O)(=O)c3c(Cl)nc4sccn34)CC2)nc1 [Compound 95]
[A] 7.363

[Q] Recall and state the measured Enzyme activity pIC50 for O=C(NO)c1cnc(N2CCN(S(=O)(=O)c3ccc4ccccc4c3)CC2)cn1 [Compound 116] .
[A] 7.159

[Q] // fetch Enzyme activity pIC50 given entry O=C(NO)c1ccc(NC(=O)N2CCN(S(=O)(=O)c3ccc4ccccc4c3)CC2)cc1 [Compound 8]
[A] 7.587

[Q] Read the entry CN1CCN(CCc2cccc(-c3ccc(S(=O)(=O)N4CCN(c5ncc(C(=O)NO)cn5)CC4)cc3)c2)CC1 [Compound 174] and write its reported Enzyme activity pIC50.
[A] 8.212

[Q] Report measured Enzyme activity pIC50; entry is O=C(NO)c1cnc(N2CCN(S(=O)(=O)c3ccc(-c4ccc(F)cc4F)cc3)CC2)nc1 [Compound 107]
[A] 7.663

[Q] Supply Enzyme activity pIC50 value. Item: Cc1ccc(S(=O)(=O)N2CCN(c3ccc(C(=O)NO)cc3)CC2)cc1 [Compound 79]
[A] 6.238

[Q] Name the recorded Enzyme activity pIC50 of the molecule listed here: CN(C)CC1CN(c2ncc(C(=O)NO)cn2)CCN1S(=O)(=O)c1ccc(-c2ccccc2)cc1 (stereo not shown) [Compound 143]
[A] 7.002

[Q] Supply recorded Enzyme activity pIC50 for CN(C)CCc1cccc(-c2ccc(S(=O)(=O)N3CCN(c4ncc(C(=O)NO)cn4)CC3)cc2)c1 [Compound 172] here.
[A] 8.566

[Q] Write down Enzyme activity pIC50 measured for item COc1ccc(OC)c(S(=O)(=O)N2CCN(c3ccc(C(=O)NO)cc3)CC2)c1 [Compound 77]
[A] 5.937

[Q] State its Enzyme activity pIC50 for this molecule: CS(=O)(=O)c1ccccc1S(=O)(=O)N1CCN(c2ccc(C(=O)NO)cc2)CC1 [Compound 60]
[A] 6.247
